condition_description: [M+H]+; instrument: DT; stepped-field
result_type: collision cross section (N2) (Å²)
One number for each entry, in Å².

1) CC(C)[C@H](NC(=O)CN)C(=O)N[C@@H](Cc1ccccc1)C(=O)N[C@@H](CCCNC(=N)N)C(=O)O :: 214.8
2) CC(C)[C@H](N)C(=O)N[C@@H](Cc1ccccc1)C(=O)N[C@@H](C)C(=O)N[C@@H](CC(=O)O)C(=O)N[C@@H](Cc1ccc(O)cc1)C(=O)N[C@@H](CCC(=O)O)C(=O)N[C@@H](CCC(=O)O)C(=O)N[C@@H](Cc1ccc(O)cc1)C(=O)N[C@H](C(=O)N[C@@H](CCCCN)C(=O)O)C(C)C :: 366.4
3) CC(C)C[C@H](NC(=O)[C@H](CC(C)C)NC(=O)[C@H](CCC(N)=O)NC(=O)[C@H](CC(N)=O)NC(=O)[C@@H](N)CC(C)C)C(=O)N[C@@H](CCCNC(=N)N)C(=O)O :: 275.6

Input line: For the molecule shown here, CCC(C)[C@H](NC(=O)[C@@H](N)C(C)C)C(=O)N[C@@H](Cc1ccccc1)C(=O)N[C@@H](CC(C)C)C(=O)N[C@@H](CCC(=O)O)C(=O)N[C@@H](CC(N)=O)C(=O)N[C@@H](Cc1ccc(O)cc1)C(=O)N[C@@H](CCCNC(=N)N)C(=O)O (some centres undefined) , give the reported collision cross section (N2).
Output line: 318.3

* * *

condition_description: [M+H]+; instrument: TW; Major Mix IMS/Tof Calibration Kit (Waters)
result_type: collision cross section (N2)

# count of solved cases: 3
1. O=C1CN=C(c2ccccc2)c2cc([N+](=O)[O-])ccc2N1 [Nitrazepam] :: 163.6 Å²
2. CN1C(=O)CN=C(c2ccccc2F)c2cc(N)ccc21 [Flunitrazepam-M 7-amino] :: 163.1 Å²
3. CNC1=Nc2ccc(Cl)cc2C(c2ccccc2)=[N+]([O-])C1 [Chlordiazepoxide] :: 170.4 Å²

Input line: Give its collision cross section (N2) value. Item: CCOc1ccccc1O[C@H](c1ccccc1)[C@H]1CNCCO1 [Reboxetine]
Output line: 174 Å²

* * *

condition_description: [M+H]+; instrument: TW; calibrated with polyalanine and drug standards
Please go through the items and note down their collision cross section (N2).
Numbers only, in Å².

For each of the items listed, what is its collision cross section (N2)?
1. C=C1C[C@@H]2[C@H](CC[C@]3(C)C(=O)CC[C@@H]23)[C@@]2(C)C=CC(=O)C=C12 [EXEMESTANE]
2. NC(=O)NC(=O)Cc1ccccc1 [PHENACEMIDE]
3. CCCCS(=N)(=O)CC[C@H](N)C(=O)O (stereo partly drawn) [L-BUTHIONINE SULFOXIMINE]
4. O=C(O)[C@@H]1[C@H]2C[C@H]3c4[nH]c5ccccc5c4CCN3C[C@@H]2CC[C@@H]1O [YOHIMBIC ACID]

Output line:
171.1
128.3
146.1
181.7

* * *

condition_description: [M+H]+; instrument: TW; calibrated with polyalanine
I'd appreciate it if you could supply collision cross section (N2) values for the items below.
Answers are plain numbers, in Å².

1) CC(C)[C@H]1OC(=O)[C@H](Cc2ccccc2)N(C)C(=O)[C@@H](C(C)C)OC(=O)[C@H](Cc2ccccc2)N(C)C(=O)[C@@H](C(C)C)OC(=O)[C@H](Cc2ccccc2)N(C)C1=O :: 283.8
2) CCCC[C@@H](C)[C@@H](OC(=O)C[C@@H](CC(=O)O)C(=O)O)[C@H](C[C@@H](C)C[C@H](O)CCCC[C@@H](O)C[C@H](O)[C@H](C)N)OC(=O)C[C@@H](CC(=O)O)C(=O)O :: 258
3) C=C(C)C(=O)/C(=C/C(=O)O)OC :: 131
4) CCCC[C@@H](C)[C@@H](OC(=O)CC(CC(=O)O)C(=O)O)[C@H](C[C@@H](C)C[C@H](O)CCCCCC[C@@H](O)[C@H](C)N)OC(=O)CC(CC(=O)O)C(=O)O (some centres undefined) :: 258
5) COc1cc2c(c3oc(=O)c4c(c13)CCC4=O)[C@@H]1CCO[C@@H]1O2 :: 162

State the recorded collision cross section (N2) for every item in the following list.
1. C=CC(C)(C)[C@@]12C=C(O)C(=O)N3/C(=C/c4cnc[nH]4)C(=O)N[C@]31N(OC)c1ccccc12
2. CC[C@H](C)[C@H]1C(=O)O[C@H](C(C)C)C(=O)N(C)[C@@H]([C@@H](C)CC)C(=O)O[C@H](C(C)C)C(=O)N(C)[C@@H](C(C)C)C(=O)O[C@H](C(C)C)C(=O)N1C
3. CC[C@H](C)[C@H]1C(=O)O[C@H](C(C)C)C(=O)N(C)[C@@H]([C@@H](C)CC)C(=O)O[C@H](C(C)C)C(=O)N(C)[C@@H]([C@@H](C)CC)C(=O)O[C@H](C(C)C)C(=O)N1C
4. CCCC[C@@H](C)[C@@H](OC(=O)C[C@@H](CC(=O)O)C(=O)O)[C@H](C[C@@H](C)CCCCCCCC[C@H](O)[C@H](C)N)OC(=O)C[C@@H](CC(=O)O)C(=O)O

Output line:
201
252.2
257.9
255

* * *

condition_description: [M+H]+; instrument: DT; single field
result_type: collision cross section (N2) (Å²)
One number for each entry, in Å².

Record excerpt, results attached:
1) CCCCCCCCCCCCC=CCC=CCC=CCC=CCC(=O)N[C@@H](COP(=O)([O-])OCC[N+](C)(C)C)[C@H](O)CC=CCCCCCCCCCCCC :: 301.97
2) CCCCCC/C=C\CCCCCCCCCC(=O)OC[C@H](COP(=O)([O-])OCC[N+](C)(C)C)OC(=O)CCCCCCCCCCCCC :: 279.13
3) CCCCCCCCCCCCC=CC[C@@H](O)[C@H](COP(=O)([O-])OCC[N+](C)(C)C)NC(=O)CCCCCCCCCCCCCCCCCCCCCC :: 302.5
4) C=CCCCCCCCCCCCCC(=O)O[C@H](COC(=O)CCCCCCCCCCCCCCC)COP(=O)([O-])OCC[N+](C)(C)C :: 276.07
5) CCCCCCCCCCCCC=CC[C@@H](O)[C@H](COP(=O)([O-])OCC[N+](C)(C)C)NC(=O)CCCCCCCCCCCCCCCCCCC :: 293.47
6) CCCCCCCCCCCCC=CC[C@@H](O)[C@H](COP(=O)([O-])OCC[N+](C)(C)C)NC(=O)CCCCCCCCCCCCCCCCCCCCCCC :: 304.96

# batch size: 2; output collision cross section (N2) per entry
1. CCCCCCCCCCCCC=CC[C@@H](O)[C@H](COP(=O)([O-])OCC[N+](C)(C)C)NC(=O)CCCCCCCCCCCCCCCC
2. CCCCCCCCCCCCC=CC[C@@H](O)[C@H](COP(=O)([O-])OCC[N+](C)(C)C)NC(=O)CC=CCCCCCCCCCCCCCCCCCCCC

Output line:
1: 284.31; 2: 305.54

* * *

condition_description: [M+Na-2H]-; instrument: DT; single field, calibrated with ESI Low Concentration Tuning Mix (Agilent)
Provide the reported collision cross section (N2) of each item.
Answers are plain numbers, in Å².

// solved cases for collision cross section (N2) follow
1. CC(=O)N[C@@H](CCC(=O)O)C(=O)O [N-ACETYLGLUTAMATE] :: 143.3
2. O=c1ccn([C@@H]2O[C@H](COP(=O)(O)OP(=O)(O)OP(=O)(O)O)[C@@H](O)[C@H]2O)c(=O)[nH]1 [URIDINE TRIPHOSPHATE] :: 190.2
3. Nc1nc(=O)c2nc(CNc3ccc(C(=O)N[C@@H](CCC(=O)O)C(=O)O)cc3)cnc2[nH]1 [FOLATE] :: 201.3
4. Nc1nc(=O)c2ncn([C@@H]3O[C@H](COP(=O)(O)OP(=O)(O)O)[C@@H](O)[C@H]3O)c2[nH]1 [GUANOSINE DIPHOSPHATE] :: 186.4

Moving on to another molecule below.
Input line: What value of measured collision cross section (N2) is listed for NC(CCCC(=O)O)C(=O)O (stereo not given) [AMINOADIPATE] ?
Output line: 134

* * *

Task for the reader: assign each of the following compounds its reported collision cross section (N2).
condition_description: [M+2Na-H]+; instrument: DT; stepped-field
Give bare numbers, in Å².

Guide cases for collision cross section (N2), answers given:
1) CC/C=C\C/C=C\C/C=C\C/C=C\C/C=C\C/C=C\CCC(=O)OC[C@H](COP(=O)(O)OC[C@H](N)C(=O)O)OC(=O)CCCCCCCCCCCCCCCCCC :: 296.18
2) CCCCCCCCCCCCCCCCCCCC(=O)N[C@@H](COP(=O)([O-])OCC[N+](C)(C)C)[C@H](O)CCCCCCCCCCCCCCC :: 294.68
3) CCCCCCCC/C=C\CCCCCCCC(=O)O[C@H](COC(=O)CCCCCCCCCCCCCCCCC)COP(=O)(O)O :: 274.66

Parameter requested: collision cross section (N2). Apply to each item below.
1. CCCCC/C=C\C/C=C\CCCCCCCC(=O)O[C@H](COCCCCCCCCCCCCCCCCCCCC)COP(=O)(O)OCCN
2. CCCCC/C=C\C/C=C\CCCCCCCCCC(=O)O[C@H](COC(=O)CCCCCCC/C=C\CCCCCCCC)COP(=O)(O)OCCN
3. CCCCCC/C=C/CCCCCCCCCC(=O)O[C@H](COC(=O)CCCCCCCCCCCCCCC)COP(=O)([O-])OCC[N+](C)(C)C

Output line:
1: 289.33; 2: 286.46; 3: 283.9

These entries and their values trace back to the C3SDB collision cross section collection.
